growth: recorded values
Tested on: NCI-H522 lung
Test: NCI-60 one-dose screen, 48 h (100 = growth as untreated, 0 = no growth, -100 = all killed)
Settings: 10 µM unless noted
The panel holds about 83,000 compounds, 20% with a hit somewhere; the sample as a whole holds those more often.
Write the value in % as a bare number.

See these solved cases before continuing.
*Q* What growth value was documented for this compound, `CCCCN1CCN(c2ccc3nc(-c4ccc5nc(-c6ccc(C(F)(F)F)cc6)[nH]c5c4)[nH]c3c2)CC1` ?
*A* -38.2

*Q* What growth value was documented for this compound, `COc1ccc(N(C)c2nc(N)nc3sc4c(c23)CCCC4)cc1` ?
*A* -13.7

*Q* What growth value was documented for this compound, `Clc1ccc(Nc2scc3[n+]2CCC3)cc1` ?
*A* 93.5

*Q* What growth value was documented for this compound, `CN(CCc1ccccc1)C(=S)N(C(=O)c1ccc([N+](=O)[O-])cc1)c1ccc(Cl)cc1` ?
*A* 100

*Q* What growth value was documented for this compound, `CC(=O)c1ccc2oc(=O)n(Cc3ccc(C#N)cc3)c(=O)c2c1` ?
*A* 99.5

Further cases:
*Q* What growth value was documented for this compound, `COc1cccc2cc(N(C)c3nc(C)nc4ccsc34)ccc12` ?
*A* -15.2

*Q* What growth value was documented for this compound, CCN1C(=O)N(CC)C2C1NC(=S)N2/N=C/C=C/c1ccccc1OC (stereo unspecified) ?
*A* 4.46

*Q* What growth value was documented for this compound, `COc1ccc(/C=C2\SC(=Nc3ccccc3)NC2=O)cc1` ?
*A* -85.6

*Q* What growth value was documented for this compound, `COc1ccc(CSc2nnc(SCC(=O)Nc3ccc(Cl)cc3)s2)cc1` ?
*A* 67.7

*Q* What growth value was documented for this compound, `CC(C)CCOc1ccc(-c2n[nH]c(C(F)(F)F)c2-c2cncc(C#N)c2)c(O)c1` ?
*A* -6.89

*Q* What growth value was documented for this compound, `COc1cc(/C=C2\CN(C)C/C(=C\c3cc(CN4CCCC4)c(O)c(OC)c3)C2=O)cc(CN2CCCC2)c1O` ?
*A* 34.7

*Q* What growth value was documented for this compound, `O=C1NC(=O)C(=Cc2cn(Cc3cn(Cc4ccc(Cl)cc4Cl)nn3)c3ccccc23)C(=O)N1` ?
*A* 77.7

*Q* What growth value was documented for this compound, `Cc1cccc2c(=O)c3c(sc12)c(NCCCNCCO)nc1ccccc13` ?
*A* 58.6

*Q* What growth value was documented for this compound, `COc1ccc(C)c2sc(N(Cc3cccnc3)C(=O)c3ccc(C#N)cc3)nc12` ?
*A* -22.2

*Q* What growth value was documented for this compound, `O=C(Nc1ccc(N2CCNCC2)cc1)c1[nH]ncc1Nc1cc(Oc2ccccc2)ncn1` ?
*A* 8.05

*Q* What growth value was documented for this compound, `N#C/C(=C\c1c(-c2ccccc2)[nH]c2ccccc12)S(=O)(=O)c1ccccc1` ?
*A* 54.9

*Q* What growth value was documented for this compound, `COc1ccc2sc3c(NCCCN)nc4ccccc4c3c(=O)c2c1` ?
*A* 18.7

*Q* What growth value was documented for this compound, `O=C(/C=C/c1ccccn1)c1ccc(OCc2nnc(-c3ccc(Cl)cc3)o2)cc1` ?
*A* 63.7

*Q* What growth value was documented for this compound, `COc1cc2nc(-c3cnc(N(C)C)nc3)nc(NC3CCN(Cc4ccccc4)CC3)c2cc1OC` ?
*A* -64.2

*Q* What growth value was documented for this compound, `Nc1ccc(-c2ccc(-c3ccccc3N)c3[nH]c4ccccc4c23)cc1` ?
*A* 46.4

*Q* What growth value was documented for this compound, CC(C)(C)c1ccc(C2CC(=O)C3=C(C2)Nc2ccccc2N(C(=O)c2ccccc2Cl)C3c2ccc(F)cc2)cc1 (stereo unspecified) ?
*A* 14.7

*Q* What growth value was documented for this compound, `CCn1c(SCC(=O)Nc2cc(C(F)(F)F)ccc2Cl)nc2ccccc2c1=O` ?
*A* 50.7

*Q* What growth value was documented for this compound, `O=C(Nc1ccc(Br)cc1F)c1cc(F)ccc1O` ?
*A* -1.14

*Q* What growth value was documented for this compound, `COc1cc(/C=C2\CN(S(=O)(=O)c3ccccc3)C/C(=C\c3cc(CN4CCCC4)c(O)c(OC)c3)C2=O)cc(CN2CCCC2)c1O` ?
*A* -26.3

*Q* What growth value was documented for this compound, COc1cc(C2C(C#N)=C(N)OC3=C2C(=O)c2ccccc2C3=O)cc(OC)c1O (stereo unspecified) ?
*A* -10.1

*Q* What growth value was documented for this compound, `O=c1oc2ccc(Br)cc2c(=O)n1-c1ccc(Br)cc1F` ?
*A* 6.36

*Q* What growth value was documented for this compound, `CCOc1ccccc1CN1CCc2nc3cc(C(C)(C)C)[nH]n3c(=O)c2C1` ?
*A* 77.1

*Q* What growth value was documented for this compound, `O=C1/C(=C/c2ccc(O)cc2)COc2ccc(O)c(O)c21` ?
*A* -47.7

*Q* What growth value was documented for this compound, `Cc1nc2ccccc2c(/C=C/c2ccccc2)c1C(=O)/C=C/c1ccc(Cl)cc1` ?
*A* -18.9

###

growth: recorded values
Tested on: RPMI-8226 leukemia
Experiment: NCI-60 one-dose screen, 48 h (100 = growth as untreated, 0 = no growth, -100 = all killed)
Conditions: 10 µM unless noted
About 83,000 compounds went through this panel and 20% of them were active in at least one assay; those are over-represented in the sample as a whole. Calls of active or inactive are those of the source. The calls were made as follows: active = growth percent below 10; inactive = the rest.

See these solved cases before continuing.
*Q* What growth value was documented for this molecule, COC(=O)C1(C)COP(=O)(Nc2ccc(OC)cc2)OC1 (stereo not given) ?
*A* 97.7% (inactive)

*Q* What growth value was documented for this molecule, `Cc1ccc(C)c(-c2csc(Nc3ccc(C)c(C)c3)n2)c1` ?
*A* 2.64% (active)

Further cases:
*Q* What growth value was documented for this molecule, `CCOc1cccc(/C=N/NC(=O)C(=O)Nc2cccc(C(F)(F)F)c2)c1O` ?
*A* 29% (inactive)

*Q* What growth value was documented for this molecule, COc1ccc(C2c3ccc4ccccc4c3Oc3ncn(CCCn4ccnc4)c(=N)c32)cc1OC (stereo not given) ?
*A* 36.1% (inactive)

*Q* What growth value was documented for this molecule, `CC/C=C\C[C@H](O)C/C=C1/C(=O)C=C[C@@H]1C/C=C\CCCC(=O)OCCS(=O)(=O)c1ccccc1` ?
*A* 14.6% (inactive)

*Q* What growth value was documented for this molecule, `COc1nccc2cc3c(=O)n4c(cc5ccccc54)c(=O)n3c12` ?
*A* 95.7% (inactive)

*Q* What growth value was documented for this molecule, `CCOC(=O)c1cc2c(n1Cc1cc(OC)c(OC)c(OC)c1)-c1oncc1CCC2` ?
*A* 16.8% (inactive)

###

Tested on: OVCAR-8 ovarian
Assay: NCI-60 one-dose screen, 48 h (100 = growth as untreated, 0 = no growth, -100 = all killed)
Conditions: 10 µM unless noted
The panel holds about 83,000 compounds, 20% with a hit somewhere; the sample as a whole holds those more often.
Mark Fulfilled for growth under 50%, Not fulfilled if at or over.

Use the examples below as a reference point.
*Q* Below 50% on growth? Entry COCCN(C(=O)Cc1cccs1)C(C(=O)NCc1ccc(OC)cc1)c1ccc(C(C)C)cc1 (stereo not drawn)
*A* Not fulfilled

*Q* Below 50% on growth? Entry `CCn1c(Cc2ccccc2Nc2c(Cl)cccc2Cl)nnc1SCC(=O)NN1C(=O)/C(=C/c2cccc(OC)c2OC)SC1=S`
*A* Not fulfilled

*Q* Below 50% on growth? Entry `COc1ccc(/C=C/C(=O)c2ccc(Nc3nc(NCCO)nc(Nc4ccc(Cl)cc4)n3)cc2)cc1`
*A* Not fulfilled

*Q* Below 50% on growth? Entry C=CCN1C(=O)/C(=c2\sc3n(c2=O)NC2C(N=3)N(CC)C(=O)N2CC)c2ccccc21 (stereo not drawn)
*A* Fulfilled

*Q* Below 50% on growth? Entry `COC(=O)/C(CCC=C(C)C)=C1\[C@@H](OC(C)=O)C[C@@]2(C)[C@H]1CC(=O)N[C@H]1[C@@]3(C)CCNC(=O)[C@@H](C)[C@@H]3CC[C@@]12C`
*A* Not fulfilled

*Q* Below 50% on growth? Entry `O=C(Nc1ccc(I)cc1F)c1cc(Cl)ccc1O`
*A* Fulfilled

*Q* Below 50% on growth? Entry `COC(=O)/C(CCC=C(C)C)=C1\[C@@H](OC(C)=O)C[C@@]2(C)[C@H]1C[C@@H](O)[C@H]1[C@@]3(C)CC[C@H](NCCO)[C@@H](C)[C@@H]3CC[C@@]12C`
*A* Not fulfilled

Here is another molecule to look at.
*Q* Below 50% on growth? Entry `CCN(CCO)CCNc1ccc(C)c2sc3cc(Cl)ccc3c(=O)c12`
*A* Fulfilled

###

Test system: MOLT-4 leukemia
Assay: NCI-60 one-dose screen, 48 h (100 = growth as untreated, 0 = no growth, -100 = all killed)
Details: 10 µM unless noted
This is part of a sample that, as a whole, favours compounds with a hit. Of some 83,000 tested, about 20% had one in any assay.
reported-property: growth (%)
Write the value in % as a bare number.

See these solved cases before continuing.
*Q* # returns recorded growth (system: MOLT-4 leukemia) for Oc1c(C(Nc2ccccn2)c2cccc(Oc3ccccc3)c2)ccc2cccnc12 (centres undefined)
*A* -70.1

*Q* # returns recorded growth (system: MOLT-4 leukemia) for `COc1cc(C=C2C(=O)N(C)C(=O)N(C)C2=O)cc(CN2CCCCC2)c1O`
*A* 98.2

*Q* # returns recorded growth (system: MOLT-4 leukemia) for `COc1cccc2cc(N(C)c3nc(C)nc4ccsc34)ccc12`
*A* 3.39

*Q* # returns recorded growth (system: MOLT-4 leukemia) for COc1ccc(N2C(=O)CC(c3cc(OC)c(OC)c(OC)c3)C3C2=NC(=O)N3C)cc1 (centres undefined)
*A* 114

*Q* # returns recorded growth (system: MOLT-4 leukemia) for `COC(=O)/C(CCC=C(C)C)=C1\[C@@H](OC(C)=O)C[C@@]2(C)[C@H]1CC(=O)[C@H]1[C@@]3(C)CC[C@H](NCc4ccccc4)[C@@H](C)[C@@H]3CC[C@@]12C`
*A* 61.7

Further cases:
*Q* # returns recorded growth (system: MOLT-4 leukemia) for `Brc1ccc(Oc2ccc(Nc3ncnc4onc(-c5ccccc5)c34)cc2)cc1`
*A* 94

*Q* # returns recorded growth (system: MOLT-4 leukemia) for `COc1cc(-c2c3c(c(Br)n2Cc2ccccc2)-c2nc(N)sc2CC3)cc(OC)c1OC`
*A* 50.6

*Q* # returns recorded growth (system: MOLT-4 leukemia) for `Cc1cc(Br)c(N)c(Br)c1`
*A* 96.4

*Q* # returns recorded growth (system: MOLT-4 leukemia) for `COC(=O)/C(=C\c1c(C)[nH]c2ccccc12)S(=O)(=O)c1ccccc1`
*A* 15.5

Hey, just so you know, these numbers are from PubChem BioAssay (NCI).
